system.name: ACK1 (Homo sapiens)
protocol: ACK1 ELISA: phosphorylation of AKT-derived peptide
Type: biochemical
experimental.conditions: 10 μM; Table 1, replicate values listed; read-out: % Inhibition at 10 μM (ELISA)
Output: class label from inhibition at 10 µM. Mapping: Low (below 50%), Mid (50% to below 80%), High (80% or more)

Input line: Record O=C(O)C1CCN(c2ccc(Nc3ncc(Cl)c(NC[C@@H]4CCCO4)n3)cc2)CC1 — which class?
Output line: High

Input line: Place this molecule in its band: CN1CCN(c2ccc(Nc3ncc(C(=O)Nc4c(F)cccc4Cl)c(NCC4CCCO4)n3)cc2)CC1 (centres unmarked)
Output line: High

Input line: Which class holds CCOC(=O)C1CCN(c2ccc(Nc3ncc(C(=O)Nc4c(F)cccc4Cl)c(NCC4CCCO4)n3)cc2)CC1.Cl (centres unmarked) ?
Output line: Mid

New cases:
Input line: Sort CCOC(=O)C1CCN(c2ccc(Nc3ncc(Cl)c(NC[C@H]4CCCO4)n3)cc2)CC1.Cl into one of the categories.
Output line: Mid

Input line: Dear colleague, I would appreciate it if you could identify the bin for CN(C)CCNC(=O)CCc1ccc(Nc2ncc(Cl)c(NCC3CCCO3)n2)cc1.Cl (centres unmarked) and reply at your convenience.
Output line: Mid

Input line: State the class of the molecule shown: Cl.Clc1cnc(Nc2ccc(C3CCNCC3)cc2)nc1NC[C@H]1CCCO1
Output line: Mid

Input line: Textbook exercise: identify the category of the molecule given here, CC(C)S(=O)(=O)c1ccccc1Nc1nc(Nc2ccc(N3CCOCC3)cc2)ncc1C(=O)Nc1c(F)cccc1Cl , according to its measured value.
Output line: High

* * *

Entries and their inhibition at 10 µM
system.name: ACK1 (Homo sapiens, UniProt Q07912)
Sequence (Q07912 whole entry): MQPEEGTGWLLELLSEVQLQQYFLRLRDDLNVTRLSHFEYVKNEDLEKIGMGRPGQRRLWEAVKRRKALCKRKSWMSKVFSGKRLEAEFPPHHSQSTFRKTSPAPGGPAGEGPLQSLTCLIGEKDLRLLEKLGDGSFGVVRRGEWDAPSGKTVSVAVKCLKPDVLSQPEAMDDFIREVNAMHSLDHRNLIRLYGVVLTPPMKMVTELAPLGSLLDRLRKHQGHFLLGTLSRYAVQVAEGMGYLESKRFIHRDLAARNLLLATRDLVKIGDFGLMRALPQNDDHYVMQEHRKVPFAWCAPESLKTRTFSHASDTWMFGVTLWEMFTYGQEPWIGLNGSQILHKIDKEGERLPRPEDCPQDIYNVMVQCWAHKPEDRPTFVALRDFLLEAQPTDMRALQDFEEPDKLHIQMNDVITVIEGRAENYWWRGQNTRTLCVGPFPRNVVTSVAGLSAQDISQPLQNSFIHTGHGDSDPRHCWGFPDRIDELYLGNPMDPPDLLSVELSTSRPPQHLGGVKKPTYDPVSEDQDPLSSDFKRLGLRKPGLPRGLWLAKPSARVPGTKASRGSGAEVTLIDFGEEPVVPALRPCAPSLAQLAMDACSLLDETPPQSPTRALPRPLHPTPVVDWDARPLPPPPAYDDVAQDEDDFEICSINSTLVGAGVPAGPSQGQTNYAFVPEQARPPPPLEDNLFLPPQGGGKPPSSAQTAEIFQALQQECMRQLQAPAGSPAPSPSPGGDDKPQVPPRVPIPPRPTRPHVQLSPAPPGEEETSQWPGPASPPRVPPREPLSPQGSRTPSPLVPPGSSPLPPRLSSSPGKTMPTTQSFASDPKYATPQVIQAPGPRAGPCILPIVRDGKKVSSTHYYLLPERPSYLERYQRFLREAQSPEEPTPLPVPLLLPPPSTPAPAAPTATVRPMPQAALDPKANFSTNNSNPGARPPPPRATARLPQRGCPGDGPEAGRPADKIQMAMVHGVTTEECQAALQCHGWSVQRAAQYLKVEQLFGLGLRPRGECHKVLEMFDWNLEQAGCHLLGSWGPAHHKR
protocol: ACK1 ELISA: phosphorylation of AKT-derived peptide
Type: biochemical
experimental.conditions: 10 μM; Table 1, replicate values listed; read-out: % Inhibition at 10 μM (ELISA)
Give your result in % as a bare value.

Input line: Report inhibition at 10 µM for CCNC(=O)C1CCN(c2ccc(Nc3ncc(Cl)c(NC[C@@H]4CCCO4)n3)cc2)CC1 tested on ACK1 (Homo sapiens, UniProt Q07912).
Output line: 73

Continuing:
Input line: Tell me reported inhibition at 10 µM for O=C(O)C1CCN(c2ccc(Nc3ncc(Cl)c(NC[C@H]4CCCO4)n3)cc2)CC1 , tested with ACK1 (Homo sapiens, UniProt Q07912).
Output line: 96

Input line: API: value(readout=inhibition at 10 µM, system=ACK1 (Homo sapiens, UniProt Q07912)) for record COc1cc(N2CCOCC2)ccc1Nc1ncc(Cl)c(NCC2CCCO2)n1 (stereo not shown)
Output line: 88

Input line: # query: inhibition at 10 µM | item CC(C)S(=O)(=O)c1ccccc1Nc1nc(Nc2ccc(O)cc2)ncc1C(=O)Nc1c(F)cccc1Cl | system: ACK1 (Homo sapiens, UniProt Q07912)
Output line: 47

* * *

Test system: VCaP cells
protocol: Cell proliferation, trypan blue exclusion, VCaP
Assay type: cell-based, human
experimental.conditions: 36 hrs, viable cells by trypan blue exclusion; read-out: IC50, inhibition of cell growth in VCaP cells
measured.parameter: pIC50
A value of pIC50 is the negative decimal logarithm of a concentration given in moles per litre.

Input line: Could you share which pIC50 value was measured for c1ccc(-c2oc3ncnc(NC[C@@H]4CCCO4)c3c2-c2ccccc2)cc1 ?
Output line: 5.40
